Every entry's value here was drawn from patent US20230035798A1.

Molecular target: T1, membrane LIGHT T191A (human, UniProt O43557 1-240)
T1 chain: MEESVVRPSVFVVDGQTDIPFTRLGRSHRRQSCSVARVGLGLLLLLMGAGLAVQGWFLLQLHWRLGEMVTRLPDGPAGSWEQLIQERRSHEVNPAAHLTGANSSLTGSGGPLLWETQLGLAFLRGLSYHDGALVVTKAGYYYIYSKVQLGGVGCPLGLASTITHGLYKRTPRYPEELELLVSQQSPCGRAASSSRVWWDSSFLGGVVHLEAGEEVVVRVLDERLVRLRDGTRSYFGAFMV
Test: flow cytometry, transfected HEK293FF, mAb at EC50
The entries below are paired with their reported binding, % of WT.
Express it in %; write the number only.

(Q) What binding, % of WT value was documented for this binder, 3B04 (antibody, human IgG4, V domains shown, chimeric: mouse variable domains on human IgG4 HC (S-to-P and L-to-E at 248) and human CL; also called Parental 3B04; 3B04 chimeric) VH: QVQLQQPGAELVRPGASVTLSCKASGYTFTDYEMHWVKQTPVHGLEWIGEIDPETGDTAYSQKFKGKATLTADKSSSTAYMEFRSLTSEDSAVYYCSRETDYFFDYWGQGTTLTVSS VL: DIQMTQTPASLSASVGETVTITCGASENIYGALNWYQRKQGKSPQLLIYGATNLADGMSSRFSGSGSGRQYSLKISSLHPDDFATYYCQNVLTTPWTFGGGTKLEIKR ?
(A) 2

(Q) Entry to check: 3D12 (antibody, human IgG4, V domains shown, chimeric: mouse variable domains on human IgG4 HC (S-to-P and L-to-E at 248) and human CL; also called Parental 3D12; 3D12 chimeric) VH: QVQLQQPGAELVRPGASVTLSCKASDYTFTDSEIHWVKQTPVHGLEWIGEIDPETGGTAYNQKFKGKATLTADKSSSTAYMELRSLTSEDSAVYYCSRETDYFFDYWGQGTTLTVSS VL: DIQMTQSPASLSASVGETVTITCGASENIYGALNWYQRKQGKSPQLLIYGATNLADGMSSRFSGSGSGRQYSLKISSLHPDDVATYYCQNVLSTPWTFGGGTKLEIKR
(A) 8
